// reported blocking efficacy for each item listed
Biological target: T1, Human Galectin-3 (Gal3) protein (human, UniProt P17931 1-250)
T1 construct: also called hGal3; rhGal-3
T1 sequence (P17931 whole entry): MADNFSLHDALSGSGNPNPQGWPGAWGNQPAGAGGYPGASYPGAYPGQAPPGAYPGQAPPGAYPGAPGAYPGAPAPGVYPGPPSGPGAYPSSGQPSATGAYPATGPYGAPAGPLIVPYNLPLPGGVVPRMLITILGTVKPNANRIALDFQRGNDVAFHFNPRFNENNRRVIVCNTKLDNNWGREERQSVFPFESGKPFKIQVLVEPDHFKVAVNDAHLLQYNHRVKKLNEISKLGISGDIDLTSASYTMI
Assay: competition ELISA, hGal3 coated; competitor: biotinylated aggregated alpha-synuclein

binder: 84712F12-hIgG4(S288P) (antibody, V domains shown, also called 847.12F12-hIgG4 (S228P); F847C.12F12) VH: QIQLVQSGPELKKPGETVKISCKASGYTFTNYGMNWVKQAPGKGLKWMGWINTYTGEPTYVDDFKGRFAFSLETSASTAYLRINNLKNEDTATYFCAKFGNYVGAMDYWGQGTSVTVSS VL: DIQVIQSPSSLSASLGDTITITCHASQNINVWLSWYQQKPGNIPKLLIYKASNLHTGVPSRFSGSGSGTGFTLTISSLQPEDIATYYCQQGQSYPYTFGGGTKLELK
result: > 70%
//
binder: TB006 (antibody, human IgG4 S228P, kappa, V domains shown, also called hTB006; hTB006Ab) VH: QVQLVQSGAEVKKPGASVKVSCKASGYSFTNYYMHWVRQAPGQRLEWMGWIYPGSGNTNYNEKFQGRVTITADTSASTAYMELSSLRSEDTAVYYCSTAPGGFDVWGQGTTVTVSS VL: DIVMTQTPLSLSVTPGQPASISCKSSKSLLHSDGITYLYWYLQKPGQSPQLLIYRMSNLASGVPDRFSGSGSGTDFTLKISRVEAEDVGVYYCAQMLEFPLTFGQGTKLEIKR
result: > 70%

Recorded result, 15G7.2A7-hIgG4(S228P) (antibody, V domains shown, also called QC200074) VH: EVQLQQSGPELVKPGASVKISCKASGYTFTDYYMNWVKQSHGKSLEWIGDINPNNGGTNYNQKFKGKATLTVDKSSSTAYMELRSLTSEDSAVYYCTSGYGFPYWGQGTLVTVSA VL: DIQMNQSPSSLSASLGDTISITCRASQNINIWLSWYQQKPGNIPQLLIYKASNLHTGVPSRFSGSGSGTDFTLTISSLQPEDIATYYCLQGQSYPLTFGAGTKLVMK , blocking efficacy: > 70%
